Cited source for all entries: patent US9908897B2

- experimental_target: human serotonin transporter (SERT) (Homo sapiens (Human))
- protocol_description: Scintillation Proximity Assay (SPA) competition binding, human SERT
- assay_conditions: recombinant hSERT-CHO membranes, [3H]citalopram
- Description: Measure of Affinity to the Human Transporters DAT, NET and SERT Affinity is expressed in terms of inhibition constant (Ki) of the compounds of the invention for DAT, NET and SERT, and it is typically calculated from the IC50 values obtained in competition experiments using Cheng and Prusoff equation (Cheng and Prusoff, Biochem. Pharmacol. 22:3099, 1973). […]
Hi there, I'd appreciate the recorded pIC50 SERT for every entry that follows.
// print number alone

// sample Cl.Fc1cccc(Oc2cc(C3CC3)nc(N3CCC4(CC3)CNCCO4)n2)c1 [Example 65] , its pIC50 SERT was 5.44

// sample Cc1ccc(Oc2ccccc2)cc1N1CCC2(CC1)CNCCO2 [Example 29] , its pIC50 SERT was 5.80

// sample COc1cccc(Oc2cc(C)nc(N3CCC4(CC3)CNCCO4)n2)c1.Cl [Example 49] , its pIC50 SERT was 4.67

// sample Fc1cccc(Oc2cc(F)cc(N3CCC4(CCNC4)CC3)c2)c1 [Example 92] , its pIC50 SERT was 7.37

// sample O=C1CCNCC12CCN(c1cc(F)c(F)cc1Oc1cccc(F)c1)C2 (centres unmarked) [Example 86] , its pIC50 SERT was 5.65

// sample Fc1cccc(Oc2cc(N3CCC4(CC3)CNCCO4)ccc2F)c1 [Example 11] , its pIC50 SERT was 6.22

// sample Cl.Fc1cccc(Oc2cc(C(F)(F)F)nc(N3CCC4(CC3)CNCCO4)n2)c1 [Example 56] , its pIC50 SERT was 5.77

// sample Cl.N#Cc1cccc(Oc2cc(C(F)(F)F)nc(N3CCC4(CC3)CNCCO4)n2)c1 [Example 59] , its pIC50 SERT was 5.15

* * *

- experimental_target: human ERG potassium channel (hERG) (Homo sapiens (Human), UniProt Q12809)
- Sequence (Q12809 whole entry): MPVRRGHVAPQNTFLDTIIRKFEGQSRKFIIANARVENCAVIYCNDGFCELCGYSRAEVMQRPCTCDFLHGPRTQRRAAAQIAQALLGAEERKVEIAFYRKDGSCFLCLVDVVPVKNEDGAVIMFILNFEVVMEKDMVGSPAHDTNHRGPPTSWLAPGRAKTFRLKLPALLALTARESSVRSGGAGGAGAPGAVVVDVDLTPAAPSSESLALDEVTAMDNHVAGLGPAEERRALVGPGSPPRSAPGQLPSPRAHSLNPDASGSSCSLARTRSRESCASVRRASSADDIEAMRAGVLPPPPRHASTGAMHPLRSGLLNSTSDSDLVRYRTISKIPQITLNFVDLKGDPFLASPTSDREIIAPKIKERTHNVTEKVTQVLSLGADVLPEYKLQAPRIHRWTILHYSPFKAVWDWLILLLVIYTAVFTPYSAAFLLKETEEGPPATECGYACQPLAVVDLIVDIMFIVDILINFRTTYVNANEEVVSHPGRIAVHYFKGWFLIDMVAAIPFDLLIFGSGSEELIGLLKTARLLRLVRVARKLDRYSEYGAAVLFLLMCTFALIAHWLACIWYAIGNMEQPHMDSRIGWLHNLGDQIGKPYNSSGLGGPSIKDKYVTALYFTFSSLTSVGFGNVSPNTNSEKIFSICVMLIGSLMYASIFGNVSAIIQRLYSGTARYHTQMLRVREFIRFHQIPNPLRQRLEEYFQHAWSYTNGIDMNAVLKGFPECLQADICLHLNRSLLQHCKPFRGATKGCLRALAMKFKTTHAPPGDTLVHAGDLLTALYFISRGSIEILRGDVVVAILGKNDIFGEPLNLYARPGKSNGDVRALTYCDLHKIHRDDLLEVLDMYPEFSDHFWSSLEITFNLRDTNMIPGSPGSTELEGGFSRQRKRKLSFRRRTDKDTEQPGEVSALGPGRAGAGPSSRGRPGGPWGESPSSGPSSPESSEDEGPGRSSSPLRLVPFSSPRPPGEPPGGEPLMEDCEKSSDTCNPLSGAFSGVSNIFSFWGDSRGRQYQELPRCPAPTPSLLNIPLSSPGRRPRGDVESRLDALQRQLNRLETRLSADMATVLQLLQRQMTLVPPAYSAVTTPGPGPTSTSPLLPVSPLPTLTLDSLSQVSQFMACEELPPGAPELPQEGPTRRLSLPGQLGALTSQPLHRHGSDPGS
- protocol_description: hERG tail current recording, Rapid ICE automated patch-clamp
- Type: cell-based
- assay_conditions: HEK293 cells stably transfected with hERG
- Experimental: Measure of the Effect on hERG Channel by Tail Current Recording Using In Vitro Rapid ICE™ The potency of the compounds of the invention in inhibiting human ERG potassium channel (hERG) tail current is assessed in a recombinant HEK293 cell line stably transfected with hERG cDNA using Rapid ICE™ (Rapid Ion Channel Electrophysiology) assay. […]
Hi there, I'd appreciate the recorded pIC50 hERG for every entry that follows.
// print number alone

// sample Fc1cccc(Oc2cc(F)c(F)cc2N2CCC3(CCNCC34OCCO4)C2)c1 (centres unmarked) [Example 93] , its pIC50 hERG was 6.0

// sample Fc1cccc(Oc2ccccc2N2CCC3(CC2)CNCCO3)c1 [Example 4] , its pIC50 hERG was 5.8

// sample Fc1cccc(Oc2cc(C(F)(F)F)nc(N3CCC4(CNCCC45OCCO5)C3)n2)c1 (centres unmarked) [Example 87] , its pIC50 hERG was 6.0

// sample Cl.FC(F)(F)c1cc(Oc2ccccc2)nc(N2CCC3(CC2)CNCCO3)n1 [Example 55] , its pIC50 hERG was 5.7

// sample Cl.Fc1cccc(Oc2cc(C(F)(F)F)nc(N3CCC4(CC3)CNCC(F)(F)O4)n2)c1 [Example 70] , its pIC50 hERG was 5.0

* * *

- experimental_target: human dopamine transporter (DAT) (Homo sapiens (Human))
- Sequence (Q01959 whole entry): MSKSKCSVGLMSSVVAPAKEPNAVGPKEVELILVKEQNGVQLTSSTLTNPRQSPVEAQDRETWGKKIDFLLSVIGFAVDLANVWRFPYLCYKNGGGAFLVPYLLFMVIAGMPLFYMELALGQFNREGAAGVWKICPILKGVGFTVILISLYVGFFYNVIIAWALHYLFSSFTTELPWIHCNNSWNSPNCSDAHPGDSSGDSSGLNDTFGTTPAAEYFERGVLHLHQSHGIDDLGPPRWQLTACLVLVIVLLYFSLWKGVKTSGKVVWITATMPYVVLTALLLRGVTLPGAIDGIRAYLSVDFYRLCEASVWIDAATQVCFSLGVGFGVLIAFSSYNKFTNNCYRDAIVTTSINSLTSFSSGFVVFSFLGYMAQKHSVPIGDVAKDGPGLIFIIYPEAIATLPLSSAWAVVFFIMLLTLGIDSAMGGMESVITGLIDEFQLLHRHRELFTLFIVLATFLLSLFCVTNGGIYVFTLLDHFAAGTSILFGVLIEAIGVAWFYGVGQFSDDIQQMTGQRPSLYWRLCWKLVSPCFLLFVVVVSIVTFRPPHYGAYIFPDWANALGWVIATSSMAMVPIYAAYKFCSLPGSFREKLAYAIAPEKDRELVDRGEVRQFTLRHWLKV
- protocol_description: Scintillation Proximity Assay (SPA) competition binding, human DAT
- assay_conditions: recombinant hDAT-CHO membranes, [3H]WIN-35,428
Hi there, I'd appreciate the recorded pIC50 DAT for every entry that follows.
// print number alone

Value sought: pIC50 DAT, system human dopamine transporter (DAT) (Homo sapiens (Human)), item `O=S1(=O)CCNCC12CCN(c1nc(Oc3cccc(F)c3)cc(C(F)(F)F)n1)CC2` . Result: 7.08

Value sought: pIC50 DAT, system human dopamine transporter (DAT) (Homo sapiens (Human)), item Cl.Fc1cccc(Oc2cc(F)c(F)cc2N2CCC3(CCNCC34OCCO4)C2)c1 (stereo not drawn) . Result: 8.69

Value sought: pIC50 DAT, system human dopamine transporter (DAT) (Homo sapiens (Human)), item `c1ccc(Oc2cccc(N3CCC4(CC3)CNCCO4)c2)cc1` . Result: 7.41

Value sought: pIC50 DAT, system human dopamine transporter (DAT) (Homo sapiens (Human)), item Fc1cccc(Oc2cc(F)c(F)cc2N2CCC3(CNCCC34OCCO4)C2)c1 (stereo not drawn) . Result: 6.62

Value sought: pIC50 DAT, system human dopamine transporter (DAT) (Homo sapiens (Human)), item `c1ccc(Oc2ccccc2N2CCC3(CC2)CNCCO3)cc1` . Result: 6.09

Value sought: pIC50 DAT, system human dopamine transporter (DAT) (Homo sapiens (Human)), item `Fc1cccc(Oc2cc(F)c(F)cc2N2CCCC3(CCNCC3)C2)c1` . Result: 6.64

Value sought: pIC50 DAT, system human dopamine transporter (DAT) (Homo sapiens (Human)), item `Cc1c(C#N)cc(N2CCC3(CC2)CNCCO3)cc1Oc1cccc(F)c1.Cl` . Result: 8.16

Value sought: pIC50 DAT, system human dopamine transporter (DAT) (Homo sapiens (Human)), item `Cl.Fc1cccc(Oc2ccnc(N3CCC4(CC3)CNCCO4)n2)c1` . Result: 7.33

Value sought: pIC50 DAT, system human dopamine transporter (DAT) (Homo sapiens (Human)), item `Cl.Fc1cccc(Oc2cc(C(F)(F)F)nc(N3CCC4(CC3)COCCN4)n2)c1` . Result: 7.94

* * *

- experimental_target: human serotonin transporter (SERT) (Homo sapiens (Human), UniProt P31645)
- Sequence (P31645 whole entry): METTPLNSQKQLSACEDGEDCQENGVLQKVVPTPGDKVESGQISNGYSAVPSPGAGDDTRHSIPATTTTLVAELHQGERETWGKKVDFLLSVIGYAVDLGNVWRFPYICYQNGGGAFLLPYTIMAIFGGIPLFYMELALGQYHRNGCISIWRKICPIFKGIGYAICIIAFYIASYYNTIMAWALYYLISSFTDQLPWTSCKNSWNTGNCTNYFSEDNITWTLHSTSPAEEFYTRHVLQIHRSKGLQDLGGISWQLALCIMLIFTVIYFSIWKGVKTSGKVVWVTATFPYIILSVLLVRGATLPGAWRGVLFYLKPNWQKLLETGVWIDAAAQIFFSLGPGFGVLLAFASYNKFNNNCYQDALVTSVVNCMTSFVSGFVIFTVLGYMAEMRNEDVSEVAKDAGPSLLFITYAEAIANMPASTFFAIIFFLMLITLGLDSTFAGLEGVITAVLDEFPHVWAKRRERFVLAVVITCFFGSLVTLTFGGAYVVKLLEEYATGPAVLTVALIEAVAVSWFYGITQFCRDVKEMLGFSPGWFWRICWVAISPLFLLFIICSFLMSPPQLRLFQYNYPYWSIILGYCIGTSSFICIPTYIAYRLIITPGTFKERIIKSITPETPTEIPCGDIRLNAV
- protocol_description: Scintillation Proximity Assay (SPA) competition binding, human SERT
- assay_conditions: recombinant hSERT-CHO membranes, [3H]citalopram
value_kind: pIC50 SERT
// print number alone

// sample `Cc1cc(Oc2ccccc2C)nc(N2CCC3(CC2)CNCCO3)n1.Cl` , its pIC50 SERT was 5.21

// sample `Fc1cccc(Oc2ccccc2N2CCC3(CC2)CNCCO3)c1` , its pIC50 SERT was 6.24

// sample `CSc1cc(Oc2cccc(F)c2)nc(N2CCC3(CC2)CNCCO3)n1.Cl` , its pIC50 SERT was 5.15

// sample `Fc1cccc(Oc2cc(F)c(F)cc2N2CCCC3(CCNCC3)C2)c1` , its pIC50 SERT was 6.49

// sample `Cc1cc(Oc2ccccc2)nc(N2CCC3(CC2)CNCCO3)n1.Cl` , its pIC50 SERT was 4.42

* * *

- experimental_target: human dopamine transporter (DAT) (Homo sapiens (Human))
- protocol_description: Scintillation Proximity Assay (SPA) competition binding, human DAT
- assay_conditions: recombinant hDAT-CHO membranes, [3H]WIN-35,428
Returns the class for an entry based on its pIC50 DAT. Class ranges: bin 0 (below 7), bin 1 (7 to below 8), bin 2 (8 or more)

Tag the class for Cl.Fc1cccc(Oc2cc(F)cc(N3CCC4(CC3)CNCCO4)c2)c1 [Example 9]
bin 2

Tag the class for O=C1COC2(CCN(c3nc(Oc4cccc(F)c4)cc(C(F)(F)F)n3)CC2)CN1 [Example 68]
bin 1

Tag the class for COc1ccccc1Oc1cc(C)nc(N2CCC3(CC2)CNCCO3)n1.Cl [Example 52]
bin 0

Tag the class for Cl.Fc1cccc(Oc2cc(F)c(F)cc2N2CCC3(CC2)CNCC(F)(F)O3)c1 [Example 69]
bin 0

Tag the class for Fc1cccc(Oc2ccc(F)c(N3CCC4(CC3)CNCCO4)c2F)c1 [Example 23]
bin 2

Tag the class for Fc1cccc(Oc2cncc(N3CCC4(CC3)CNCCO4)c2)c1 [Example 31]
bin 1

Tag the class for Fc1cccc(Oc2ccccc2N2CCC3(CC2)CNCCO3)c1 [Example 4]
bin 1

Tag the class for Cl.Fc1cccc(Oc2cccc(N3CCC4(CC3)CNCCO4)n2)c1 [Example 36]
bin 1

Tag the class for Cc1cc(Oc2cccc(C(F)(F)F)c2)nc(N2CCC3(CC2)CNCCO3)n1.Cl [Example 48]
bin 0

Tag the class for Fc1cccc(Oc2cc(F)c(F)c(N3CCC4(CC3)CNCCO4)c2)c1 [Example 13]
bin 2

Tag the class for N#Cc1ccc(Oc2ccccc2)cc1N1CCC2(CC1)CNCCO2 [Example 27]
bin 1

Tag the class for N#Cc1cc(Oc2ccccc2)cc(N2CCC3(CC2)CNCCO3)c1 [Example 25]
bin 2

Tag the class for Cc1ccc(Oc2ccccc2)cc1N1CCC2(CC1)CNCCO2 [Example 29]
bin 1

Tag the class for Cc1cc(Oc2cc(F)cc(F)c2)nc(N2CCC3(CC2)CNCCO3)n1.Cl [Example 50]
bin 2

Tag the class for O=C1NCC2(CCN(c3nc(Oc4cccc(F)c4)cc(C(F)(F)F)n3)CC2)O1 [Example 89]
bin 1

Tag the class for Fc1cccc(Oc2cc(N3CCC4(CC3)CNCCO4)c(F)cc2F)c1 [Example 12]
bin 0

Tag the class for Cc1cc(Oc2ccccc2C)nc(N2CCC3(CC2)CNCCO3)n1.Cl [Example 51]
bin 1

Tag the class for Fc1cccc(Oc2cc(N3CCC4(CC3)CNCCO4)ccc2F)c1 [Example 11]
bin 0

Tag the class for Cc1cc(Oc2cccc(F)c2)nc(N2CCC3(CC2)CNCCO3)n1.Cl [Example 44]
bin 2

Tag the class for O=S1(=O)CCNCC12CCN(c1cc(F)c(F)cc1Oc1cccc(F)c1)CC2 [Example 71]
bin 0

Tag the class for Fc1cccc(Oc2cc(C(F)(F)F)nc(N3CCC4(CC3)CNCCN4)n2)c1 [Example 75]
bin 2

Tag the class for Fc1c(Oc2ccccc2)cccc1N1CCC2(CC1)CNCCO2 [Example 17]
bin 2

Tag the class for O=C1CNCC2(CCN(c3nc(Oc4cccc(F)c4)cc(C(F)(F)F)n3)CC2)N1 [Example 73]
bin 0

Tag the class for Cl.Fc1cccc(Oc2cc(C(F)(F)F)cc(N3CCC4(CC3)CNCCO4)n2)c1 [Example 37]
bin 2
